molecular target: T1, human angiotensin-converting enzyme 1 (human, UniProt P12821 30-1256); test: enzyme inhibition assay (fluorogenic substrate); 0.25 nM hACE1, 10 μM Mca-Arg-Pro-Pro-Gly-Phe-Ser-Ala-Phe-Lys(Dnp)-OH, MP 0.03 nM to 100 μM; 10 mM Tris-HCl pH 7.4, 300 mM NaCl, 100 μM ZnCl2, 0.1% BSA, 0.1% DMSO; details: both partners purified
T1 construct: also called hACE1; human ACE1 enzyme
T1 sequence (P12821 30-1256): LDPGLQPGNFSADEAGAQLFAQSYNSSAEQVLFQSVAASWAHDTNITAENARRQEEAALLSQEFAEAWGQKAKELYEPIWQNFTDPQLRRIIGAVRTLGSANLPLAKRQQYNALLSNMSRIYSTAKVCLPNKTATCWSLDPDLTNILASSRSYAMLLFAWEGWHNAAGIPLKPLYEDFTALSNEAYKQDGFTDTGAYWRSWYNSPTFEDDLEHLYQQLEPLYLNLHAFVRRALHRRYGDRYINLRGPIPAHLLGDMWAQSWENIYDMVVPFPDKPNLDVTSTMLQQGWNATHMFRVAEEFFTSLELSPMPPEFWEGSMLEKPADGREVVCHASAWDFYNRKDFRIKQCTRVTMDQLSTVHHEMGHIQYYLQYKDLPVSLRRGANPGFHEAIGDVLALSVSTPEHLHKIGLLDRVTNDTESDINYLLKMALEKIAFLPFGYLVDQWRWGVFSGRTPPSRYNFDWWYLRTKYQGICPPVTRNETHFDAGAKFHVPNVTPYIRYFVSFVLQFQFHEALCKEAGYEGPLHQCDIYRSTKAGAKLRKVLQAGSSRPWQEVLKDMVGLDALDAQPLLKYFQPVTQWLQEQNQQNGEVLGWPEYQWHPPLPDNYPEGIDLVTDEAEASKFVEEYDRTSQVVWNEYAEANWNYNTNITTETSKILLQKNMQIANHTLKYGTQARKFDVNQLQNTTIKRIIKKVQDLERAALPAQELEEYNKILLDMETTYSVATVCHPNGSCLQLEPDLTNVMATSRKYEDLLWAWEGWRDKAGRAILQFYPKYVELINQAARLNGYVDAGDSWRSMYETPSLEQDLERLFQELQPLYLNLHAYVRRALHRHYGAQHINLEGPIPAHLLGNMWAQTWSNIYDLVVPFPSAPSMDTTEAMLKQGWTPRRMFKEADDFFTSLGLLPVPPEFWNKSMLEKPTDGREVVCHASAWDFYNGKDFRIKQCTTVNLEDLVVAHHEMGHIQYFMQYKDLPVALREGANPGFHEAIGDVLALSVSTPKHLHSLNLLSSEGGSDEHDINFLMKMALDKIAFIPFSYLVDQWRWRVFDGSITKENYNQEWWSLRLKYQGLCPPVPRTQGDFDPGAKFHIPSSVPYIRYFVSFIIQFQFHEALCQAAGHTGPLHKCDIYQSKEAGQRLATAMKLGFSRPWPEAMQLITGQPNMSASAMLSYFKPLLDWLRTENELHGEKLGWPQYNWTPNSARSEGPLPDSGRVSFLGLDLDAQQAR
pKi: −log10 of the molar value.
measured-attribute: pKi

binder="ACFLRCHRDVKCWLWCSG (also called synthetic GR3.1.2) [GR3.1.2, synthetic isomer 2 of the two-ring macrocyclic peptide GR3.1]" measured_attribute=pKi result="< 4.00"
binder="ACFFIGFNRWICSG (also called synthetic GR1.1) [GR1.1, synthetic one-ring macrocyclic peptide]" measured_attribute=pKi result="< 4.00"
binder="ACEPLGYNLFLCSG (also called synthetic GR1.4) [GR1.4, synthetic one-ring macrocyclic peptide]" measured_attribute=pKi result="< 4.00"
